- Tested on: Punta Toro virus
- PROTOCOL DETAILS: Antiviral activity against Punta Toro virus in vero cells
- Assay type: functional
- CONDITION LABEL: Punta Toro virus; read-out: MIC50
So I've got a bunch of molecules here, and I need their MIC50 values.
Give bare numbers, in µg/mL.

molecule="CN1O[C@H](CO)C[C@@H]1c1cc2ccccc2c2ccccc12 (racemic)" readout_name=MIC50 measurement_unit=µg/mL result_number=9.6

For the molecule NC(=O)c1ncn([C@@H]2O[C@H](CO)[C@@H](O)[C@H]2O)n1 , what MIC50 is on record?
80

---

- System: THP-1
- PROTOCOL DETAILS: Cytotoxicity against THP1 Leukemia cells by MTS assay
- Format: functional, cell-based, Homo sapiens
- CONDITION LABEL: thp-1
READOUT NAME: IC50
Phrase the answer as number then unit, nothing more needed.

What value of IC50 has been reported for the following compound? CN1O[C@H](CO)C[C@@H]1c1cc2ccccc2c2ccccc12 (relative stereo)
148 µM

---

Task for the reader: assign each of the following compounds its reported MCC.
- Tested on: Vero
- PROTOCOL DETAILS: Antiviral activity against vero cells
- Type: functional, Chlorocebus sabaeus
- CONDITION LABEL: Chlorocebus sabaeus, Vero; read-out: MCC

compound="CN1O[C@H](CO)C[C@@H]1c1cc2ccccc2c2ccccc12 (racemic)" readout_name=MCC result="80 µg/mL"
compound="NC(=O)c1ncn([C@@H]2O[C@H](CO)[C@@H](O)[C@H]2O)n1 [RIBAVIRIN]" readout_name=MCC result="> 400 µg/mL"
compound="O=c1[nH]c(=O)n([C@H]2C[C@H](O)[C@@H](CO)O2)cc1/C=C/Br [BRIVUDINE]" readout_name=MCC result="> 400 µg/mL"

MCC lookup needed for Nc1ncnc2c1ncn2C[C@H](O)CO [(S)-DHPA] , thanks.
> 400 µg/mL

---

- Tested on: Human alphaherpesvirus 2
- PROTOCOL DETAILS: Antiviral activity against Herpes simplex virus 2 G strain in HEL cells
- Assay type: functional
- CONDITION LABEL: Human alphaherpesvirus 2, G
READOUT NAME: MIC50 (µg/mL)
Give bare numbers, in µg/mL.

Consider the following illustrative entries.
input_smiles=Nc1nc2c(ncn2COCCO)c(=O)[nH]1 measured_on="Human alphaherpesvirus 2" measurement_unit=µg/mL result_number=0.384
input_smiles=O=c1[nH]c(=O)n([C@H]2C[C@H](O)[C@@H](CO)O2)cc1/C=C/Br measured_on="Human alphaherpesvirus 2" measurement_unit=µg/mL result_number=240

Now consider a different molecule.
Using the record for Nc1nc2c(ncn2COC(CO)CO)c(=O)[nH]1 , report its MIC50.
0.032

---

- Tested on: Vero
- PROTOCOL DETAILS: Cytotoxicity against normal vero kidney cells by MTS assay
- Type: functional, cell-based, Chlorocebus sabaeus
- CONDITION LABEL: Chlorocebus sabaeus, Vero
Please respond with reported IC50 for every item in the list.
One number for each entry, in µM.

Known results for compounds:
compound="CN1O[C@H](CO)C[C@@H]1c1cc2ccccc2c2ccccc12 (racemic)" readout_name=IC50 result_number=246
compound="OC[C@@H]1C[C@H](c2ccc3ccc4cccc5ccc2c3c45)N(Cc2ccccc2)O1 (racemic)" readout_name=IC50 result_number=301
compound="OC[C@@H]1C[C@H](c2cc3ccccc3c3ccccc23)N(Cc2ccccc2)O1 (racemic)" readout_name=IC50 result_number=63

Report IC50 for CN1O[C@H](CO)C[C@@H]1c1ccc2ccc3cccc4ccc1c2c34 (racemic) please.
159
